Target: Neu5Ac(a2-6)Gal(b1-4)GlcNAc(b1-2)Man(a1-3)[Neu5Ac(a2-6)Gal(b1-4)GlcNAc(b1-2)Man(a1-6)]Man(b1-4)GlcNAc(b1-4)GlcNAc
Assay: glycan array binding signal (z-score within array); higher = stronger binding
Conditions: glycan notation: IUPAC condensed, linker removed
The entries come from a sample that favours the strongest signals as a whole.
readout: glycan array binding signal (z-score)
Give the figure by itself; no unit, no explanation.

# annotated cases, reported glycan array binding signal (z-score) shown
{"binder": "X56-1 (Clostridium perfringens), P26831 (protein) MGSSHHHHHHSSGLVPRGSHMASDPNRIIATYISNRQDAPTGNPDNIFDNNASTELVYKNPNRIDVGTYVGVKYSNPITLNNVEFLMGANSNPNDTMQKAKIQYTVDGREWIDLEEGVEYTMPGAIKVENLDLKVRGVRLIATEARENTWLGVRDINVNKKEDSNSGVEF", "measurement": -0.264}
{"binder": "CV-2L (Chromobacterium violaceum), Q7NX84 (protein) MAQQGVFTLPARINFGVTVLVNSAATQHVEIFVDNEPRAAFSGVGTGDNNLGTKVINSGSGNVRVQITANGRQSDLVSSQLVLANKLNLAVVGSEDGTDMDYNDSIVILNWPLG", "measurement": -0.336}

// below: glycan array binding signal (z-score) requested for another binder
Return reported glycan array binding signal (z-score); argument: RBMC1 (Vibrio cholerae) (protein) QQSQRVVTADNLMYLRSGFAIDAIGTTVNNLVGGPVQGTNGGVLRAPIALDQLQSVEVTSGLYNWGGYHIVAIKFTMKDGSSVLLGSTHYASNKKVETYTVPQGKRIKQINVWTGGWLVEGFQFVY 4.94
